TEST SYSTEM: Human GPR40 (Homo sapiens, UniProt O14842)
Sequence (O14842 whole entry): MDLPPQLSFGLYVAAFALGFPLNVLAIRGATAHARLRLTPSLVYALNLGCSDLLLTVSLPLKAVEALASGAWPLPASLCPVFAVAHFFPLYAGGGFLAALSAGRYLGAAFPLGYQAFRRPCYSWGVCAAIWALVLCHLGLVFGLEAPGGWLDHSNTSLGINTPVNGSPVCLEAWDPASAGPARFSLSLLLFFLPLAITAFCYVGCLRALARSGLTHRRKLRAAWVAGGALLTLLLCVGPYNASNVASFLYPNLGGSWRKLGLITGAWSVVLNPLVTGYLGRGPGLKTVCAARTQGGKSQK
TEST: FLIPR assay, agonist-induced calcium mobilization in GPR40/CHO NFAT BLA cells
Type: cell-based
Design: expressed in transfected cells
Binary call on EC50 with cut-off 2 nM: strictly below means y, and equality or higher means n.

For orientation, consider the following solved cases.
| CHEM SMILES | GROUP |
| --- | --- |
| COc1ccc(F)c(-c2cc3c(cn2)[C@H](Oc2cccc([C@H](C4CC4)[C@H](C)C(=O)O)c2)CC3)c1 | y |
| COc1ccc(F)c(-c2ccc3c(c2F)CC[C@H]3Oc2cccc([C@@H](CC(=O)O)C3CC3)c2)c1 | n |
| COc1ccc(F)c(-c2cc(F)c3c(c2)CC[C@H]3Oc2cccc([C@@H](CC(=O)O)C3CC3)c2)c1 | n |
| COc1ccc(F)c(-c2ccc3c(c2)CC[C@H]3Oc2cccc([C@H](C3CC3)[C@H](C)C(=O)O)c2)c1 | y |
| COc1ccc(F)c(-c2ccc3c(c2)CC[C@H]3Oc2cccc([C@H](C3CC3)[C@@H](C)C(=O)O)c2F)c1 | n |

Strictly below 2 nM in EC50? `COc1ccc(F)c(-c2ccc3c(c2C#N)CC[C@H]3Oc2cccc([C@@H](CC(=O)O)C3CC3)c2)c1`
n

###

Item-by-item account of EC50
TEST SYSTEM: Human GPR40 (Homo sapiens, UniProt O14842)
TEST: Inositol Phosphate Turnover (IP1) assay in HEK cells stably expressing human GPR40
Assay type: cell-based
Design: expressed in transfected cells; host or cells: HEK cells stably expressing the aequorin reporter
Note: unit nM is implicit; provide only the numeric part.

| COMPOUND | EC50 / nM |
| --- | --- |
| COc1ccc(F)c(-c2ccc3c(c2)CC[C@H]3Oc2cccc([C@H](C3CC3)[C@H](C)C(=O)O)c2)c1 [Example 2] | 2.9 |
| COc1ccc(F)c(-c2ccc3c(c2)CC[C@H]3Oc2cccc([C@H](C3CC3)[C@H](C)C(=O)O)c2F)c1 [Example 4] | 2.8 |
| COc1ccc(F)c(-c2ccc3c(c2)CC[C@H]3Oc2cccc([C@@H](CC(=O)O)C3CC3)c2)c1 [Example 1] | 64 |
| COc1ccc(F)c(-c2cc3c(cc2F)[C@H](Oc2cccc([C@@H](CC(=O)O)C4CC4)c2)CC3)c1 [Example 39] | 151 |
| C[C@H](C(=O)O)[C@H](c1cccc(O[C@@H]2CCc3cc(-c4cc(O)ccc4F)ccc32)c1)C1CC1 [Example 35] | 2.9 |
| COc1ccc(F)c(-c2ccc3c(c2C#N)CC[C@H]3Oc2cccc([C@@H](CC(=O)O)C3CC3)c2)c1 [Example 30] | 412 |

Consider now this further compound.
For the record COc1ccc(F)c(-c2ccc3c(c2F)CC[C@H]3Oc2cccc([C@@H](CC(=O)O)C3CC3)c2)c1 [Example 34] , what value of EC50 is listed for Human GPR40 (Homo sapiens, UniProt O14842)?
107

###

TEST SYSTEM: Human GPR40 (Homo sapiens, UniProt O14842)
TEST: Inositol Phosphate Turnover (IP1) assay in HEK cells stably expressing human GPR40
Type: cell-based
Set-up: expressed in transfected cells; host or cells: HEK cells stably expressing the aequorin reporter
RECORDED ENDPOINT: EC50
Please give the number followed by its unit.

| COMPOUND | RECORDED ENDPOINT | RECORDED VALUE |
| --- | --- | --- |
| COc1ccc(F)c(-c2ccc3c(c2-c2cccc4ccn(C)c24)CC[C@H]3Oc2cccc([C@H](C3CC3)[C@H](C)C(=O)O)c2)c1 | EC50 | 145 nM |
| COc1ccc(F)c(-c2cc(F)c3c(c2)CC[C@H]3Oc2cccc([C@@H](CC(=O)O)C3CC3)c2)c1 | EC50 | 2160 nM |
| COc1ccc(F)c(-c2ccc3c(c2)CC[C@H]3Oc2cccc([C@H](C3CC3)[C@@H](C)C(=O)O)c2F)c1 | EC50 | 154 nM |
| COc1ccc(F)c(-c2ccc3c(c2Cl)CC[C@H]3Oc2cccc([C@@H](CC(=O)O)C3CC3)c2)c1 | EC50 | 357 nM |

Query compound follows.
I have this compound here, `COc1ccc(F)c(-c2cc3c(cn2)[C@H](Oc2cccc([C@H](C4CC4)[C@H](C)C(=O)O)c2)CC3)c1` , and I need its recorded EC50.
15 nM

###

EC50 listing for selected molecules.
TEST SYSTEM: Human GPR40 (Homo sapiens, UniProt O14842)
TEST: FLIPR assay, agonist-induced calcium mobilization in GPR40/CHO NFAT BLA cells
Format: cell-based
Parameters: expressed in transfected cells
Quick note: number first, unit second.

Value lookup for EC50; key = `COc1ccc(F)c(-c2ccc3c(c2)CC[C@H]3Oc2cccc([C@@H](CC(=O)O)C3CC3)c2)c1`
2 nM

Try this molecule next: `C[C@H](C(=O)O)[C@H](c1cccc(O[C@@H]2CCc3cc(-c4cc(O)ccc4F)ccc32)c1)C1CC1`
0.2 nM

Try this molecule too: COc1ccc(F)c(-c2cc3c(cc2F)[C@H](Oc2cccc([C@@H](CC(=O)O)C4CC4)c2)CC3)c1 [Example 33]
12 nM

`COc1ccc(F)c(-c2ccc3c(n2)CC[C@H]3Oc2cccc([C@@H](CC(=O)O)C3CC3)c2)c1` , same question.
17 nM

Same lookup for `COc1ccc(F)c(-c2ccc3c(c2-c2cccc4ccn(C)c24)CC[C@H]3Oc2cccc([C@H](C3CC3)[C@H](C)C(=O)O)c2)c1` , please.
1 nM

And the next one, `COc1ccc(F)c(-c2ccc3c(c2Cl)CC[C@H]3Oc2cccc([C@@H](CC(=O)O)C3CC3)c2)c1` ?
7 nM

# iterate: `COc1ccc(F)c(-c2ccc3c(c2)CC[C@H]3Oc2cccc([C@H](C3CC3)[C@H](C)C(=O)O)c2F)c1`
0.2 nM

Next: COc1ccc(F)c(-c2cc3c(cc2F)[C@H](Oc2cccc([C@@H](CC(=O)O)C4CC4)c2)CC3)c1 [Example 39]
5 nM

Then this molecule: `COc1ccc(F)c(-c2ccc3c(c2F)CC[C@H]3Oc2cccc([C@H](C3CC3)[C@H](C)C(=O)O)c2)c1`
0.4 nM

###

TEST SYSTEM: UniProt O14842
TEST: Inositol Phosphate Turnover (IP1) assay in HEK cells stably expressing human GPR40
Assay type: cell-based
Design: expressed in transfected cells; host or cells: HEK cells stably expressing the aequorin reporter
pEC50 reference
// pEC50 is dimensionless: -log10 of concentration (M)

Answered cases to consult:
| COMPOUND | pEC50 |
| --- | --- |
| COc1ccc(F)c(-c2ccc3c(c2F)CC[C@H]3Oc2cccc([C@H](C3CC3)[C@H](C)C(=O)O)c2)c1 [Example 32] | 8.35 |
| COc1ccc(F)c(-c2cnc3c(c2)CC[C@H]3Oc2cccc([C@H](C3CC3)[C@H](C)C(=O)O)c2)c1 [Example 40] | 7.04 |
| COc1ccc(F)c(-c2ccc3c(n2)CC[C@H]3Oc2cccc([C@@H](CC(=O)O)C3CC3)c2)c1 [Example 38] | 6.05 |

Quick one: pEC50 for COc1ccc(F)c(-c2cc3c(cc2F)[C@H](Oc2cccc([C@@H](CC(=O)O)C4CC4)c2)CC3)c1 [Example 33] ?
6.81

Where do these numbers come from? They come from patent US9957219B2.
